System: microbial enrichment cultures
Experiment: Inhibitory potency (IC50) of inorganic compounds against growth and ammonium production, microbial enrichment with yeast extract
Format: cell-based
METRIC: NH4^+ IC50/growth IC50 ratio

1) [Cl-].[Cl-].[Cl-].[Ga+3] [Gallium(III)chloride]; 1.0037
2) O.O.O.O.O.O.[Cl-].[Cl-].[Co+2] [Cobalt chloride hexahydrate]; 22.1846
3) O=[As][O-].[Na+] [Sodium m-arsenite]; 3.9664
4) [Cl-].[Cs+] [Cesium chloride]; 30.1708
5) [Cl-].[Li+] [Lithium chloride]; 3.4054
6) O=C([O-])[O-].[Na+].[Na+] [Sodium carbonate]; 0.5039
7) O=NO [Sodium nitrite]; 0.3023
8) C[C@H](CCC(=O)[O-])[C@H]1CC[C@H]2[C@@H]3[C@H](O)C[C@@H]4C[C@H](O)CC[C@]4(C)[C@H]3C[C@H](O)[C@]12C.O.[Na+] [Sodium cholate hydrate]; 5.9537
9) [Cl-].[Cl-].[Sr+2] [Strontium chloride]; 3.3568
10) O=S([O-])[O-].[Na+].[Na+] [sodium sulfite]; 2.4699

###

Measured NH4^+ IC50/growth IC50 ratio, listed per entry for reference.
Test system: microbial enrichment cultures
Assay: Inhibitory potency (IC50) of inorganic compounds against growth and ammonium production, microbial enrichment with yeast extract
Type: cell-based
METRIC: NH4^+ IC50/growth IC50 ratio

1) [Cl-].[Cl-].[Zn+2] [Zinc chloride]; 0.1037
2) [Cl-].[Rb+] [rubidium chloride]; 1.4483
3) [O-][Cl+3]([O-])([O-])O [Sodium perchlorate monohydrate]; 5.2779
4) CC(=O)[O-].[Tl+] [Thallium(I) acetate]; 0.3751
5) O.O.O.O.O.O.[Cl][Cr]([Cl])[Cl] [Chromium(III) Chloride Hexahydrate]; 0.0003
6) CC(=O)c1ccc(O)cc1 [4-Hydroxyacetophenone]; 1.3700
7) O.O.O.O.O.O=S([O-])([O-])=S.[Na+].[Na+] [Sodium thiosulfate pentahydrate]; 0.5741
8) O=S(=O)([O-])[O-].[Ag+].[Ag+] [silver sulfate]; 1.9192
9) [Ce+3].[Cl-].[Cl-].[Cl-] [Cerium(III) chloride]; 0.0189
10) [I-].[Na+] [sodium iodide]; 0.2617
11) O.O.O.O.O.O=[Se]([O-])[O-].[Na+].[Na+] [Sodium selenite pentahydrate]; 0.2998
12) [F-].[Na+] [sodium fluoride]; 1.6628
13) O=S(=O)([O-])[O-].[Na+].[Na+] [Sodium sulfate]; 1.0000
14) O=C([O-])O.[Na+] [Sodium bicarbonate]; 0.3242
15) Cl.NO [Hydroxylamine hydrochloride]; 0.3854
16) [Br-].[Na+] [sodium bromide]; 0.5766
17) [Na+].[O-][Cl+2]([O-])[O-] [Sodium Chlorate]; 1.9090
18) [Cl-].[Cl-].[Cl-].[Eu+3] [Europium(III) chloride]; 0.1036
19) O.O=P([O-])(O)O.[Na+] [Sodium phosphate monobasic monohydrate]; 0.3418
20) O=S(=O)([O-])CCBr.[Na+] [Sodium 2-bromoethanesulfonate]; 5.3024
21) O=[N+]([O-])[O-].[Na+] [Sodium nitrate]; 3.4080
22) [Cl-].[Na+] [Sodium Chloride]; 21.9487
23) Cl.N [Ammonium chloride]; 1.0157
24) [Cl-].[K+] [Potassium Chloride]; 0.4776
25) O.O=[Te]([O-])[O-].[K+].[K+] [Potassium tellurite hydrate]; 0.1044
26) O=[PH](O)O [Sodium phosphite dibasic pentahydrate]; 1.3336
27) [Na+].[O-][I+3]([O-])([O-])[O-] [Sodium periodate]; 7.8824
28) [Na+].[Na+].[O]=[Mo](=[O])([O-])[O-] [Sodium molybdate]; 6.7259
29) O.O.O.O.O.O.O.O=[As]([O-])([O-])O.[Na+].[Na+] [Sodium arsenate dibasic heptahydrate]; 3.2618
30) N.N.O.O=S(O)O [Ammonium sulfite monohydrate]; 2.0739
31) O=[Te](=O)([O-])[O-].[K+].[K+] [potassium tellurate]; 1.7673
32) [Cl][Pb][Cl] [Lead(II)chloride]; 0.0174
33) O=[Se](=O)(O)O [Sodium selenate]; 10.0581
34) CS(=O)(=O)[O-].[Na+] [Sodium methanesulfonate]; 0.4289
35) O.O.O.O.O.[Cd+2].[Cd+2].[Cl-].[Cl-].[Cl-].[Cl-] [Cadmium chloride hemipentahydrate]; 0.2809

Data provenance is patent US10961163B2.
